test: Plasma clearance in rat; assay type: ADME, organism-based
metricName: clearance (mL/min/kg)
Record the value in mL/min/kg, omitting the unit from your answer.

Exam item: Name the reported clearance value associated with the molecule `NC(=O)c1cnc2cc(-c3ccncc3)ccc2c1Nc1ccccc1`
Marked response: 39

====

system: NSO; assay: Growth inhibition of MCSF-independent mouse NSO cells
metricName: IC50 (µM)
Could you give me the number in µM? Just the number is fine.

Examples with answers:
1. CS(=O)(=O)Cc1ccc(-c2ccc3c(Nc4ccccc4)c(C(N)=O)cnc3c2)cc1
8
2. CS(=O)(=O)c1ccc(-c2ccc3c(Nc4ccccc4)c(C(N)=O)cnc3c2)cc1
20
3. COc1ccc(Nc2c(C(N)=O)cnc3cc(-c4ccncc4)ccc23)cc1F
32

Exam item: Tell me the measured IC50 of `NC(=O)c1cnc2cc(-c3ccc(C(=O)N4CCCCC4)cc3)ccc2c1Nc1ccccc1` , please.
Marked response: 8

Exam item: Another molecule to look at: `NC(=O)c1cnc2cc(-c3ccc(F)cc3)ccc2c1Nc1ccccc1`
Marked response: 25
